From: the array DNA melting data of Ke et al. (doi:10.1101/2024.01.08.574731)

- ASSAY INFO: folding enthalpy; higher = less favourable; fluorescence melt of hairpins on a sequencing array, two-state fit
- ASSAY CONDITIONS: sodium 0.088 M
READOUT TYPE: folding enthalpy (kJ/mol)
Reply numerically in kJ/mol, unit not repeated.

[[record]]
sequence = "GCCATCCGAAAGGACGGC (((.(((....))).)))"
readout_type = "folding enthalpy"
unit_of_measure = "kJ/mol"
measured_value = -168


Notebook: GCGTTACGACGC ((((....)))) , folding enthalpy read as -108

The recorded folding enthalpy for GGATGGGGAAACCCATTC (.(((((....))))).) is -91.9

Data point: GGTTTCGGAAACAAAACC (((((.(....).))))) ; folding enthalpy = -95.1

folding enthalpy in this record for GATTGAGGAAACCCAATC (((((.(....).))))) : -122

Measured folding enthalpy, GCAGTCGAAAGACTCTGC ((((((....)))..))) : -67.3

The sequence listed as GCGTTGCGAAAGCCACGC ((((.((....)).)))) has a reported folding enthalpy of -153

Entry GATCTTCCGGAAGATC ((((((....)))))) — recorded folding enthalpy = -231
